# Test system: HOP-62
# Assay Info: Growth inhibition of human HOP62 cells after 48 hrs by sulforhodamine B assay
# Format: functional
# Cond: HOP-62, 48 h
Assign labels as follows, please: t for GI50 below 500 nM; f for GI50 equal to or exceeding 500 nM.

{"columns": ["Given Smiles", "Class"],
 "data": [
  ["Cc1cc(C)n(C(=O)c2nn(-c3ccc(Cl)cc3)cc2O)n1", "f"],
  ["Cc1c2c(nn1C(=O)c1nn(-c3ccc(Cl)cc3)cc1O)-c1ccccc1CC2", "t"],
  ["N#Cc1cnn(C(=O)c2nn(-c3ccc(Cl)cc3)cc2O)c1N", "t"]
]}

Lab note: confirm whether the reported GI50 for this compound is below 500 nM, equality not counting. compound: CC1=NN(C(=O)c2nn(-c3ccc(Cl)cc3)cc2O)C(=O)C1
f

Another compound: O=C(c1nn(-c2ccc(Cl)cc2)cc1O)n1nc(-c2ccco2)cc1C(F)(F)F
f

* * *

# Assay Info: Cytotoxicity against human melanoma cells after 48 hrs by sulforhodamine B assay
# Type: functional
# Cond: Melanoma cell, read-out: LC50 (the source's name)
Give CC50 for every item shown.
Could you kindly put the unit after your number?

The cases that follow already have their CC50 on record.
{"columns": ["Given Smiles", "Measured Property", "Result"],
 "data": [
  ["O=C(c1nn(-c2ccc(Cl)cc2)cc1O)n1nc(-c2ccco2)cc1C(F)(F)F", "CC50", "89.4 µM"],
  ["Cc1c2c(nn1C(=O)c1nn(-c3ccc(Cl)cc3)cc1O)-c1ccccc1CC2", "CC50", "86.4 µM"],
  ["O=C1CC(=O)N(C(=O)c2nn(-c3ccc(Cl)cc3)cc2O)N1", "CC50", "85.2 µM"]
]}

Provide each entry's CC50 from the list below.
1. N#Cc1cnn(C(=O)c2nn(-c3ccc(Cl)cc3)cc2O)c1N
2. CC1=NN(C(=O)c2nn(-c3ccc(Cl)cc3)cc2O)C(=O)C1
3. Cc1cc(C)n(C(=O)c2nn(-c3ccc(Cl)cc3)cc2O)n1

1. 65 µM
2. 93.6 µM
3. 92.8 µM

* * *

# Tested on: RPMI-8226
# Assay Info: Growth inhibition of human RPMI8226 cells after 48 hrs by sulforhodamine B assay
# Type: functional
# Cond: RPMI-8226, 48 h
Measured Property: log10(GI50) (log10 of the value in nM)
The common logarithm of GI50 in nM is what is listed.

The cases that follow already have their log10(GI50) on record.
{"columns": ["Given Smiles", "log10(GI50)"],
 "data": [
  ["O=C(c1nn(-c2ccc(Cl)cc2)cc1O)n1nc(-c2ccco2)cc1C(F)(F)F", 3.15],
  ["Cc1c2c(nn1C(=O)c1nn(-c3ccc(Cl)cc3)cc1O)-c1ccccc1CC2", 1.58]
]}

Provide each entry's log10(GI50) from the list below.
1. N#Cc1cnn(C(=O)c2nn(-c3ccc(Cl)cc3)cc2O)c1N
2. Cc1cc(C)n(C(=O)c2nn(-c3ccc(Cl)cc3)cc2O)n1
3. CC1=NN(C(=O)c2nn(-c3ccc(Cl)cc3)cc2O)C(=O)C1
4. O=C1CC(=O)N(C(=O)c2nn(-c3ccc(Cl)cc3)cc2O)N1

[2.32, 3.52, 3.22, 2.58]
